Data provenance is ChEMBL document CHEMBL1201861.

# System: ONS-76;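 further: growth inhibition of human ONS-76 cells, read out with a cell viability assay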
# Assay Notes: cells
# Format: functional, cell-based, Homo sapiens
# Experimental Conditions: Homo sapiens, ONS-76
# Description: SANGER: Inhibition of human ONS-76 cell growth in a cell viability assay.
pIC50: −log10 of the molar value.

Compound: O=C(/C=C/c1ccccc1)NC(NC(=S)Nc1cccc2cccnc12)C(Cl)(Cl)Cl (centres undefined) [SALUBRINAL]
pIC50: < 4.80

Compound: C=CCNC1=C2C[C@@H](C)C[C@H](OC)[C@H](O)[C@@H](C)/C=C(\C)[C@H](OC(N)=O)[C@@H](OC)/C=C\C=C(/C)C(=O)NC(=CC1=O)C2=O [TANESPIMYCIN]
pIC50: < 6.00

Compound: CN1CCN(CCOc2cc(OC3CCOCC3)c3c(Nc4c(Cl)ccc5c4OCO5)ncnc3c2)CC1 [SARACATINIB]
pIC50: < 5.70

Compound: Cc1ccc(Nc2nccc(N(C)c3ccc4c(C)n(C)nc4c3)n2)cc1S(N)(=O)=O [PAZOPANIB]
pIC50: < 5.10
